Assay: 24-h urinary recovery
Type: in vivo
Conditions: female, F344, rat, urine, po, 300 μmol/kg, single oral dose 300 μmol/kg, HPLC fraction; read-out: 24-h urinary recovery, Recovered as NAC-AITC, % of adminstered dose
Recorded metric: dose excreted (%)
Respond numerically; units are % and should not be typed.

Request: Give the measured dose excreted for C=CCNC(=S)SC[C@H](NC(C)=O)C(=O)O [NAC-AITC]
Response: 47.3

====

Test system: rat bladder cancer AY-27 cells
Assay: MTT cell growth and proliferation assay, AY-27 cells
Type: cell-based
Conditions: Rattus norvegicus, AY-27; Example 9, 72 h treatment; read-out: IC50, inhibition of cell proliferation
Recorded metric: pIC50
Note on units: pIC50 is unitless, being -log10 of a concentration expressed in mol/L.

Request: Supply recorded pIC50 for C=CCNC(=S)SC[C@H](NC(C)=O)C(=O)O here.
Response: 5.04

The measured values listed here are drawn from patent US9486434B2.
